- SYSTEM: T1, MAGI1-3 (human, UniProt Q96QZ7 643-721)
- T1 construct: PDZ domain number 3 of human MAGI1; also called MAGI1 PDZ dom 3; source: E. coli, in crude cell lysate; not shown: His, N-terminal, kept
- T1 sequence (Q96QZ7 643-721): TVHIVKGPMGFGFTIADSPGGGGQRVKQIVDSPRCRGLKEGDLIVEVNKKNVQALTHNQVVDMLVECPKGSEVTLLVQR
- EXPERIMENT_SUMMARY: holdup assay; biotinylated PBM peptide saturating streptavidin resin (biotin resin as reference); tag-PDZ at 4 uM in crude E. coli lysate, 15 min, filtration, free tag-PDZ by capillary electrophoresis; singlicate; BI cut-off 0.20; BI converted into KD with the peptide concentration back-calculated from FP
- PARTICULARS: one partner purified
pKd: −log10 of the molar value. Where no end group is shown, it is not given here. The star is where a group is joined. Biotin = O=C1N[C@H]2[C@H](CS[C@H]2CCCCC(=O)*)N1; TTDS = NCCCOCCOCCOCCCNC(=O)CCC(=O)*
READOUT: pKd

| BINDER | READOUT | RESULT |
| --- | --- | --- |
| {Biotin-TTDS}-DEDQHTQITKV (peptide, UniProt P60484 393-403, looked up, also called 11-mer wild-type PTEN PBM peptide; native PTEN_11 PBM; source: synthetic peptide (Chemical Peptide Synthesis Service of the IGBMC, Fmoc)) [PTEN_11] | pKd | 4.52 |
| {Biotin-TTDS}-DEDQHTQITRV (peptide, UniProt P60484 393-403, looked up, also called K402R mutant; source: synthetic peptide (Chemical Peptide Synthesis Service of the IGBMC, Fmoc)) [PTEN_KR] | pKd | 4.82 |
| {Biotin-TTDS}-DEDQHTQITK(Ac)V (peptide, UniProt P60484 393-403, looked up, also called acetylated version of PTEN_11; acetylated peptide; source: synthetic peptide (Chemical Peptide Synthesis Service of the IGBMC, Fmoc)) [PTEN_Ac] | pKd | 5.00 |
| {Biotin-TTDS}-PFDEDQHTQITKV (peptide, UniProt P60484 391-403, looked up, also called 13-mer PTEN peptide; extended wild-type peptide; source: synthetic peptide, bought: JPT Innovative Peptide Solutions (70%-80% purity)) [PTEN_13] | pKd | 5.00 |
